Origin of the recorded values: patent US20230233569A1

# target.under.test: NRAS WT (Homo sapiens, UniProt P01111+P62937)
# Sequence (P01111 whole entry): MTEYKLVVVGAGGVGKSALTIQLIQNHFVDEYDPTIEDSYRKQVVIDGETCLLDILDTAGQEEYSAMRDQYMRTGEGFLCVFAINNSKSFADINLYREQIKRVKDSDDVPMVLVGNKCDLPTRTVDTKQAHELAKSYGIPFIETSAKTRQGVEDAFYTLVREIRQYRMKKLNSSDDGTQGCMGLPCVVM
# Sequence (P62937 whole entry): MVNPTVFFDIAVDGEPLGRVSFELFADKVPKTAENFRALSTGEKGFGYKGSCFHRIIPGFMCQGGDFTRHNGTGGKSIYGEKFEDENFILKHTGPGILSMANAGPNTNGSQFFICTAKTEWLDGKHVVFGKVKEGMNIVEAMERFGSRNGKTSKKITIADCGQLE
# experiment: Disruption of BRAF RBD interaction with Ras (FRET / MOA assay, with Cyclophilin A)
# Type: biochemical
# condition.notes: NRAS WT; read-out: NRAS WT FRET data IC50
# Excerpt: Disruption of B-Raf Ras-Binding Domain (BRAF^RBD) Interaction with K-Ras by Compounds of the Invention (Also Called a FRET Assay or an MOA Assay) Note—The following protocol describes a procedure for monitoring disruption of K-Ras G12C (GMP-PNP) binding to BRAF^RBD by a compound of the invention. This protocol may also be executed substituting other Ras proteins or nucleotides. […]
Measured IC50 of individual entries
attribute.measured: IC50

{"columns": ["compound", "measured.value"],
 "data": [
  ["CCn1c(-c2cccnc2[C@H](C)OC)c2c3cc(ccc31)-c1cc(O)cc(c1)C[C@H](NC(=O)C(C)Cc1ccncc1)C(=O)N1CCC[C@H](N1)C(=O)OCC(C)(C)C2 (some centres unmarked) [Example A179]", "0.1 to 1 µM"],
  ["CCn1c(-c2cccnc2[C@H](C)OC)c2c3cc(ccc31)-c1csc(n1)C[C@H](NC(=O)[C@H](C(C)C)N(C)C(=O)N1CC(NC)C1)C(=O)N1CCC[C@H](N1)C(=O)OCC(C)(C)C2 (atropisomer, axis not shown) [Example A337]", "0.1 to 1 µM"],
  ["CCn1c(-c2cccnc2[C@H](C)OC)c2c3cc(ccc31)-c1csc(n1)C[C@H](NC(=O)[C@H]1C[C@@H]1C)C(=O)N1CCC[C@H](N1)C(=O)OCC(C)(C)C2 [Example A286]", "0.1 to 1 µM"],
  ["CCn1c(-c2cccnc2[C@H](C)OC)c2c3cc(ccc31)-c1cc(O)cc(c1)C[C@H](NC(=O)[C@H](C(C)C)N(C)C(=O)[C@H]1C[C@@H]1C)C(=O)N1CCC[C@H](N1)C(=O)OCC(C)(C)C2 [Example A287]", "0.01 to 0.1 µM"],
  ["CCn1c(-c2cccnc2[C@H](C)OC)c2c3cc(ccc31)-c1csc(n1)C[C@H](NC(=O)[C@H](C(C)C)N(C)C(=O)N1CC([C@H](C)NC)C1)C(=O)N1CCC[C@H](N1)C(=O)OCC(C)(C)C2 [Example A535]", "0.1 to 1 µM"]
]}

---

Measured IC50 of individual entries
# target.under.test: KRAS G12D (Homo sapiens, UniProt P01116+P62937, G12D)
# Sequence (P01116 1-169 isoform P01116-2 G12D limits assumed): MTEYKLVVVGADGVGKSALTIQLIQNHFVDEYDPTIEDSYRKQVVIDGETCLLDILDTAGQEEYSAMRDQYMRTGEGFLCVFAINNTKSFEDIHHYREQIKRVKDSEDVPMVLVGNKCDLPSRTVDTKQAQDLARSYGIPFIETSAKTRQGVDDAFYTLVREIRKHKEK
# Sequence (P62937 whole entry): as the sequence (P62937 whole entry) above
# experiment: Disruption of BRAF RBD interaction with Ras (FRET / MOA assay, with Cyclophilin A)
# Type: biochemical
# condition.notes: read-out: KRAS G12D FRET data, IC50
attribute.measured: IC50

{"columns": ["compound", "measured.value"],
 "data": [
  ["CCn1c(-c2cccnc2[C@H](C)OC)c2c3cc(ccc31)-c1csc(n1)C[C@H](NC(=O)[C@H](C(C)C)N(C)C(=O)[C@@H]1C[C@@H]1C)C(=O)N1CCC[C@H](N1)C(=O)OCC(C)(C)C2", "1000 to 10000 nM"],
  ["CCn1c(-c2cc(N3CCN(C)CC3)cnc2[C@H](C)OC)c2c3cc(ccc31)-c1csc(n1)C[C@H](NC(=O)[C@H](C(C)C)N(C)C(=O)N1C[C@@H](C)N(C)C[C@H]1C)C(=O)N1CCC[C@H](N1)C(=O)OCC(C)(C)C2 (atropisomer, axis not shown)", "100 to 1000 nM"],
  ["CCn1c(-c2cccnc2[C@H](C)OC)c2c3cc(ccc31)-c1csc(n1)C[C@H](NC(=O)[C@H](C(C)C)N(C)C(=O)N1CC(N(C)C3CC3)C1)C(=O)N1CCC[C@H](N1)C(=O)OCC(C)(C)C2 (atropisomer, axis not shown)", "100 to 1000 nM"],
  ["CCn1c(-c2cccnc2[C@H](C)OC)c2c3cc(ccc31)-c1cc(O)cc(c1)C[C@H](NC(=O)[C@H](C(C)C)N(C)C(=O)[C@H]1CCN(C(=O)CNC)C1)C(=O)N1CCC[C@H](N1)C(=O)OCC(C)(C)C2 (atropisomer, axis not shown)", "10 to 100 nM"],
  ["CCn1c(-c2cnccc2COC)c2c3cc(ccc31)-c1cc(O)cc(c1)C[C@H](NC(=O)[C@H](C(C)C)N(C)C(=O)O[C@H]1CCOC1)C(=O)N1CCC[C@H](N1)C(=O)OCC(C)(C)C2", "1000 to 10000 nM"],
  ["CCn1c(-c2ccccc2CN(C)C)c2c3cc(ccc31)-c1cc(O)cc(c1)C[C@H](NC(=O)[C@H](C(C)C)N(C)C(=O)c1ccc(NC(=O)/C=C/CN(C)C)cn1)C(=O)N1CCC[C@H](N1)C(=O)OCC(C)(C)C2", "1000 to 10000 nM"],
  ["CCn1c(-c2cccnc2[C@H](C)OC)c2c3cc(ccc31)-c1cc(O)cc(c1)C[C@H](NC(=O)[C@H](C(C)C)N(C)C(=O)[C@H]1CCN(C(=O)CN)C1)C(=O)N1CCC[C@H](N1)C(=O)OCC(C)(C)C2", "10 to 100 nM"],
  ["C=CC(=O)N1CC2(CCN2C(=O)N(C)[C@H](C(=O)N[C@H]2Cc3nc(n(C)n3)-c3ccc4c(c3)c(c(-c3cccnc3[C@H](C)OC)n4CC)CC(C)(C)COC(=O)C3CCCN(N3)C2=O)C(C)C)C1 (some centres unmarked)", "100 to 1000 nM"]
]}
